Target: T1, human CD70 expressed on the surface of cells (human, UniProt P32970 1-193)
T1 sequence (looked up): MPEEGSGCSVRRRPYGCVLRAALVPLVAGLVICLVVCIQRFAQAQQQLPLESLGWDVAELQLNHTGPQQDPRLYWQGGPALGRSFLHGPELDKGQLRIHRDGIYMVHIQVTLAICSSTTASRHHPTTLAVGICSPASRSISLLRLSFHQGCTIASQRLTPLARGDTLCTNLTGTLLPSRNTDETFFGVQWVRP
Experiment: cell-based or functional assay
test.readout: IC50 (ng/ml), IL-8 secretion in Raji / HT1080-CD27 co-culture assay (ng/mL)
// units = ng/mL; emit number, no label

* 9E1 chimeric llama-human mAb (antibody, human IgG1, V domains shown) VH: EVQLQESGGGVVQPGGSLRLSCAASGFTFDDYAMSWVRQAPGKGLEWVSSIYMYDSSTYYADSVKGRFTISTDNAKNTVYLQMNSLKSEDTAVYYCAKDINRSYGSSWSHFGPIFSSWGQGTQVTVSS VL: QAVVTQEPSLSVSPGGTVTLTCGLTSGSVTSSNYPDWYQQTPGQAPRLLIYNTNSRHSGVPSRFSGSISGNKAALTITGAQPEDEADYYCNLYMGSGGSKVFGGGTKLTVLG | 517

Please report IC50 (ng/ml), IL-8 secretion in Raji / HT1080-CD27 co-culture assay for the following binder: 19G10 chimeric llama-human mAb (antibody, human IgG1, V domains shown) VH: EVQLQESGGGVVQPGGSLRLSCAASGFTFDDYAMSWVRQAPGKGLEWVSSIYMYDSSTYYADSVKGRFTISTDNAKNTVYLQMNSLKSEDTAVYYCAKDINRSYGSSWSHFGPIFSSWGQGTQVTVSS VL: NFMLTQPSAVSVSLGQTARITCQGGYYTHWYQQKPGQAPVLVIYVNNNRPSGIPERFSGSSSGNTATLTISGAQAEDEAAYYCQSGSSSTIPVFGGGTKLTVLG
16

State its IC50 (ng/ml), IL-8 secretion in Raji / HT1080-CD27 co-culture assay for this binder: 57B6 chimeric llama-human mAb (antibody, human IgG1, V domains shown) VH: QLQLVESGGGLVQPGGSLRLSCAASGFSFSHYAMSWVRQAPGKGLEWVSGDNTYDGGTRYQDSVKGRFTISRDNGKNTLYLQMNSLKPEDTAVYYCAKDTGRGIMGEYGMDYWGKGTLVTVSS VL: QTVVTQEPSLSVSPGGTVTLTCGLKSGSVTSSNYPAWYQQTPGQAPRLLIYNTNSRHSGVPSRFSGSISGNKAALTITGAQPEDEADYYCALYMGSGSANAMFGGGTHLTVLG
5

Measured values drawn from patent US20150266963A1 for this set.
